Data provenance is patent US4432973A.

The compounds listed here are annotated with their LD50.
- METHOD_SUMMARY: Acute toxicity in the mouse by the I.P. route
- Type: in vivo
- EXPERIMENTAL_CONTEXT: in vivo, ip, I.P., read-out: DL-50 (lethal dose involving the death of half of the animals)

{"COMPOUND": "CC(=O)N[C@H]1[C@H](Oc2c(C)cc(C(=O)c3ccccc3C)cc2C)O[C@H](CO)[C@@H](O)[C@@H]1O", "METRIC": "LD50", "DATA_VALUE": "700 mg/kg"}
{"COMPOUND": "O=[N+]([O-])c1ccc(C(O)c2ccc(O[C@@H]3OC[C@@H](O)[C@H](O)[C@H]3O)cc2)cc1 (stereo partly shown)", "METRIC": "LD50", "DATA_VALUE": "> 1000 mg/kg"}
{"COMPOUND": "CC(=O)O[C@@H]1[C@@H](OC(C)=O)[C@H](Oc2ccc(C(=O)c3ccccc3C)cc2)OC[C@H]1OC(C)=O", "METRIC": "LD50", "DATA_VALUE": "900 mg/kg"}
{"COMPOUND": "Cc1ccccc1C(=O)c1ccc(O[C@@H]2OC[C@@H](O)[C@H](O)[C@H]2O)cc1", "METRIC": "LD50", "DATA_VALUE": "740 mg/kg"}
{"COMPOUND": "Cc1cc(C(=O)c2ccc(Cl)cc2)cc(C)c1O[C@@H]1OC[C@@H](O)[C@H](O)[C@H]1O", "METRIC": "LD50", "DATA_VALUE": "500 mg/kg"}

We now examine a further compound.
## Task For O=[N+]([O-])c1cccc(C(O)c2ccc(O[C@@H]3OC[C@@H](O)[C@H](O)[C@H]3O)cc2)c1 (stereo partly shown) , what is its reported LD50?
## Result > 600 mg/kg
